tested_system: Mt-AspS (M. tuberculosis aspartyl-tRNA synthetase) (Mycobacterium tuberculosis, UniProt P9WFW3)
Sequence (P9WFW3 whole entry): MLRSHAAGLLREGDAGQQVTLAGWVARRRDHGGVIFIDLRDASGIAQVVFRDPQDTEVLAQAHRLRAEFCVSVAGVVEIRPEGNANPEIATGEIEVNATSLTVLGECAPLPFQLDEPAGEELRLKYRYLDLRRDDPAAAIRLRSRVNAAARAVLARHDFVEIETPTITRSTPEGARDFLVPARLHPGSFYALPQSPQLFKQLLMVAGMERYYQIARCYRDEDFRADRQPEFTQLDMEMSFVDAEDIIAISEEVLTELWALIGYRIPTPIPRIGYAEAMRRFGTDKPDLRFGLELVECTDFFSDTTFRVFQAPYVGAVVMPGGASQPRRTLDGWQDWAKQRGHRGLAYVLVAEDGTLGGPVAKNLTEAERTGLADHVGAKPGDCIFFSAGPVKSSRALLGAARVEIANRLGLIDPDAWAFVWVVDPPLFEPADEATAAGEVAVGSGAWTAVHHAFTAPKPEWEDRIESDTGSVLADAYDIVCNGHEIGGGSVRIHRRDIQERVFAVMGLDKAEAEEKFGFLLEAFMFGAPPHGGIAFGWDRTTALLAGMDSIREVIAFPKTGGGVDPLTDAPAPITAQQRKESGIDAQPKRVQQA
Attribute: IC50
Return type: number; implicit unit µM.

[[record]]
smiles_structure = "NC(=O)C1CCN(C2=NC(=O)/C(=C\\c3ccc(Cl)cc3Cl)S2)CC1"
assay_value = 49.9


Next:
[in] Answer with reported IC50 of CCOC(=O)C1CCN(C2=NC(=O)/C(=C\c3ccc(Cl)cc3)S2)CC1
[out] 59.1
